molecular target: T1, full-length human Tau (Tau441; 2N4R), recombinant (human, UniProt P10636 1-758); experiment: SPR Biacore
T1 construct: made in E. coli, His6-Smt3 tag removed; biotinylated through amines for Octet and phage work; also called r-Tau; recombinant Tau
T1 sequence (P10636 other isoform, or with tags, fused parts or gaps limits assumed): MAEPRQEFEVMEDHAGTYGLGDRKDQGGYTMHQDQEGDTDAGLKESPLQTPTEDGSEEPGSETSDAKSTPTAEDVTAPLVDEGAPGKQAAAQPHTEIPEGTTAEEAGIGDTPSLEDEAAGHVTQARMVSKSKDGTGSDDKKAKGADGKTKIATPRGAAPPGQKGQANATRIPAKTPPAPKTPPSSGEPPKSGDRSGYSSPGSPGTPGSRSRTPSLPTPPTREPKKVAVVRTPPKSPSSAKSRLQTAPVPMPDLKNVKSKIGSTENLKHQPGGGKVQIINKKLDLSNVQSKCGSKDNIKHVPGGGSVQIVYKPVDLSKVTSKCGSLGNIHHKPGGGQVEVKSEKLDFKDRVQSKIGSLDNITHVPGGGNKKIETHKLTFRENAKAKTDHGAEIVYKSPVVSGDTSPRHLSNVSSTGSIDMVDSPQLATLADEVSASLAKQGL

BINDER	Kd [nM]
Clone with H1_4-1 (antibody, V domains shown, based on hu1C7.v2) VH: EVQLLESGGGLVQPGGSLRLSCAASGFTFSGPGMSWVRQAPGKGLEWVASISGDGGSYIHYADSVKGRFTISRDNSKNTLYLQMNSLRAEDTAVYYCARLPYWGQGTLVTVSS VL: DIVMTQSPDSLAVSLGERATINCKSSQSLLNSGNQKNYLTWYQQKPGQPPKLLIYWASTRESGVPDRFSGSGSGTDFTLTISSLQAEDVAVYYCQQYNSYPLTFGQGTKVEIKR	0.837
Clone with H2_3 (antibody, V domains shown, based on hu1C7.v2) VH: EVQLLESGGGLVQPGGSLRLSCAASGFTFSSYGMSWVRQAPGKGLEWVASISGSGGSYIHYADSVKGRFTISRDNSKNTLYLQMNSLRAEDTAVYYCARLPYWGQGTLVTVSS VL: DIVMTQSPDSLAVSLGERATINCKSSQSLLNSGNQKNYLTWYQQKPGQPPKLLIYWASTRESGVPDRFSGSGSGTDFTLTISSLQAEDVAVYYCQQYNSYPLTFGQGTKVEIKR	9.68
Clone with H1_2-4 (antibody, V domains shown, based on hu1C7.v2) VH: EVQLLESGGGLVQPGGSLRLSCAASGFTFSLVGTSWVRQAPGKGLEWVASISGDGGSYIHYADSVKGRFTISRDNSKNTLYLQMNSLRAEDTAVYYCARLPYWGQGTLVTVSS VL: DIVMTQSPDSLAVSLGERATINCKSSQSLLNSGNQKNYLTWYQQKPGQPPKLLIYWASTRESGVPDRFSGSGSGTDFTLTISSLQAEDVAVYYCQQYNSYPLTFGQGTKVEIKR	1.41
